Target: Thrombin
Test: enzyme inhibition, Z-Gly-Pro-Arg-pNa substrate, tight-binding fit
Bridge positions count the residues as written; N and C are the ends. Ends that are not written are not given here.
experimental_readout: pKi
Just the number, please; pKi means minus log10 of the concentration in mol/L.

Task item: Which pKi value belongs to GICSRSLPPICIPD (disulfide 3-11 (inferred), Synthetic consensus peptide of the non-selective group, linear form; also called "NS" peptide; non-selective peptide) [M2-4G] ?
Reply: 5.00
